- targetOrTestSystem: recombinant human ULK1 protein (1-649) (Homo sapiens, UniProt O75385)
- Construct: recombinant human ULK1 protein (1-649, SignalChem #U01-11G); purchased SignalChem U01-11G
- Sequence (O75385 1-649): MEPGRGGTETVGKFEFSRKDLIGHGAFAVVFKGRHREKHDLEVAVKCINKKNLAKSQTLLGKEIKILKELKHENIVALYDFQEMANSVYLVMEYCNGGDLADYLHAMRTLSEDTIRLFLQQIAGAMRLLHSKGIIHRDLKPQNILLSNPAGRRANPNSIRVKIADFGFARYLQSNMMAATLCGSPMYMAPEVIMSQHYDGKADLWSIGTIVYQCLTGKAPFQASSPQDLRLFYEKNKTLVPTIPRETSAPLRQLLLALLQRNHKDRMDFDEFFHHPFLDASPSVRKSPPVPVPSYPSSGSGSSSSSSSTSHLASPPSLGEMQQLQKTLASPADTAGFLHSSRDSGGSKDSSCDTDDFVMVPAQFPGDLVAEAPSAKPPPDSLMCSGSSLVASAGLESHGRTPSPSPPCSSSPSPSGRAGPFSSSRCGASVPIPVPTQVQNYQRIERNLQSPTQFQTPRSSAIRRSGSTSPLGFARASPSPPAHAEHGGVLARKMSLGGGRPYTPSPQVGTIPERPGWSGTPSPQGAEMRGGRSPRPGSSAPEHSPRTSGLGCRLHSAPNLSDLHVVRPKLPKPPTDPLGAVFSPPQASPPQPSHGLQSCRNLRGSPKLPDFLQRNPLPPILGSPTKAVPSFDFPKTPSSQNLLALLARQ
- experimentSummary: ULK1 inhibition assay (ADP Glo)
- Type: biochemical
- conditionParameters: Table 1; 25 uM ATP, MBP substrate, one hour
The molecules listed here are annotated with their IC50.

Some molecules with recorded IC50:
>>> result("Nc1cnc(Nc2ccc3c(c2)CCNC3)nc1NC1CC1")
"> 10 nM"
>>> result("CNC(=O)c1ccccc1Nc1nc(Nc2ccc3c(c2)CCN(Cc2ccccn2)C3)ncc1Br")
"> 10 nM"
>>> result("CNC(=O)c1ccccc1Nc1nc(Nc2ccc3c(c2)CCN(CC(=O)N2CCOCC2)C3)ncc1Br")
"> 10 nM"
>>> result("CNC(=O)c1ccccc1Nc1nc(Nc2ccc3c(c2)CN(S(N)(=O)=O)CC3)ncc1Br")
"> 10 nM"
>>> result("CCNC(=O)N1CCc2cc(Nc3ncc(C(F)(F)F)c(NC4CC4)n3)ccc2C1")
"1 to 10 nM"

Summary for this molecule, FC(F)(F)c1cnc(Nc2ccc3c(c2)CN(CC2CCNC2)CC3)nc1NC1CC1 (stereo not shown) : IC50 is > 10 nM

Summary for this molecule, `CNC(=O)c1ccccc1Nc1nc(Nc2ccc3c(c2)CCN(C(=O)CCC(=O)O)C3)ncc1Br` : IC50 is > 10 nM

Summary for this molecule, `FC(F)(F)c1cnc(Nc2ccc3c(c2)CCN(CCS)C3)nc1NC1CC1` : IC50 is < 1 nM

Summary for this molecule, `OCCN1CCc2ccc(Nc3ncc(C(F)(F)F)c(NC4CC4)n3)cc2C1` : IC50 is 1 to 10 nM

Summary for this molecule, `NCC(=O)N1CCc2ccc(Nc3ncc(C(F)(F)F)c(NC4CC4)n3)cc2C1` : IC50 is 1 to 10 nM
